# experimentDescription: Acute Dermal LD50
# condition: in vivo, topical or ocular, standard, accepted protocols
readoutType: LD50 (mg/kg)
Please give a number only; it is taken to be in mg/kg.

QUERY: Which LD50 is reported for this compound? ClCC=CC[N+]12CN3CN(CN(C3)C1)C2 [reference compound]
RESULT: 2000

QUERY: What would you report for C(=CC[N+]12CN3CN(CN(C3)C1)C2)C[N+]12CN3CN(CN(C3)C1)C2 ?
RESULT: 8000
